Let's look at some compounds and their measured Affinity constant.
# System name: Adenosine A2 receptor (Homo sapiens) (UniProt P29275+P29274)
# Experimental conditions: brain
# Description: Affinity constant for A2 receptor control of adenylate cyclase in adipocytes, heart and brain cells
Hi! Could you send only the number? It should be in µM, unit omitted.

Example compounds with recorded Affinity constant:
| Compound | System name | Observed result |
| --- | --- | --- |
| CNc1ncnc2c1ncn2[C@@H]1O[C@H](CO)[C@@H](O)[C@H]1O | Adenosine A2 receptor (Homo sapiens) (UniProt P29275+P29274) | 80 |
| OC[C@H]1O[C@@H](n2cnc3c(Nc4ccccc4)ncnc32)[C@H](O)[C@@H]1O | Adenosine A2 receptor (Homo sapiens) (UniProt P29275+P29274) | 50 |
| C[C@@H](Cc1ccccc1)Nc1ncnc2c1ncn2[C@@H]1O[C@H](CO)[C@@H](O)[C@H]1O [(S)-PIA] | Adenosine A2 receptor (Homo sapiens) (UniProt P29275+P29274) | 100 |
| CC(C)Cn1c(=O)n(C)c(=O)c2nc[nH]c21 | Adenosine A2 receptor (Homo sapiens) (UniProt P29275+P29274) | 5 |

Input: I am curious: what Affinity constant value has been reported for OC[C@H]1O[C@@H](n2cnc3c(NC4CCCCC4)ncnc32)[C@H](O)[C@@H]1O ?
Output: 30

Input: For CSC[C@H]1O[C@@H](n2cnc3c(N)ncnc32)[C@H](O)[C@@H]1O , what is its reported Affinity constant?
Output: 10

Input: For the compound Cn1c(=O)c2c(ncn2C)n(C)c1=O , what Affinity constant is on record?
Output: 30

Input: // lookup Affinity constant for OC[C@H]1O[C@@H](n2cnc3c(NCc4ccccc4)ncnc32)[C@H](O)[C@@H]1O
Output: 80

Input: What does the data say about its Affinity constant? Entry: C[C@H](Cc1ccccc1)Nc1ncnc2c1ncn2[C@@H]1O[C@H](CO)[C@@H](O)[C@H]1O [(R)-PIA]
Output: 30

* * *

Measured Affinity constant, listed per entry.
# System name: Adenosine receptor A1 (Homo sapiens)
# Experimental conditions: brain
# Description: Affinity constant for inhibition of A1 receptor control of adenylate cyclase in adipocytes, heart and brain cells
Give just the number in µM; leave the unit off.

Observe how each entry below is paired with its result.
| Molecule | Unit abbreviation | Affinity constant |
| --- | --- | --- |
| C[C@@H](Cc1ccccc1)Nc1ncnc2c1ncn2[C@@H]1O[C@H](CO)[C@@H](O)[C@H]1O [(S)-PIA] | µM | 0.2 |
| Cn1c(=O)c2c(ncn2C)n(C)c1=O | µM | 30 |
| Nc1nc(Cl)nc2c1ncn2[C@@H]1O[C@H](CO)[C@@H](O)[C@H]1O | µM | 0.01 |
| OC[C@H]1O[C@@H](n2cnc3c(Nc4ccccc4)ncnc32)[C@H](O)[C@@H]1O | µM | 0.003 |
| CNc1ncnc2c1ncn2[C@@H]1O[C@H](CO)[C@@H](O)[C@H]1O | µM | 0.1 |
| C[C@H](Cc1ccccc1)Nc1ncnc2c1ncn2[C@@H]1O[C@H](CO)[C@@H](O)[C@H]1O [(R)-PIA] | µM | 0.003 |

Input: Looking for the measured Affinity constant of OC[C@H]1O[C@@H](n2cnc3c(NC4CCCCC4)ncnc32)[C@H](O)[C@@H]1O , can you help?
Output: 0.003

Input: For the molecule shown here, OC[C@H]1O[C@@H](n2cnc3c(NCc4ccccc4)ncnc32)[C@H](O)[C@@H]1O , give the reported Affinity constant.
Output: 0.2

Input: Which measured Affinity constant value corresponds to CCNC(=O)[C@H]1O[C@@H](n2cnc3c(N)ncnc32)[C@H](O)[C@@H]1O ?
Output: 0.1

Input: Given the entry CC(C)Cn1c(=O)n(C)c(=O)c2nc[nH]c21 , report its measured Affinity constant.
Output: 2

* * *

# System name: Adenosine receptor A2a (Cavia porcellus)
# Sequence (P46616 whole entry): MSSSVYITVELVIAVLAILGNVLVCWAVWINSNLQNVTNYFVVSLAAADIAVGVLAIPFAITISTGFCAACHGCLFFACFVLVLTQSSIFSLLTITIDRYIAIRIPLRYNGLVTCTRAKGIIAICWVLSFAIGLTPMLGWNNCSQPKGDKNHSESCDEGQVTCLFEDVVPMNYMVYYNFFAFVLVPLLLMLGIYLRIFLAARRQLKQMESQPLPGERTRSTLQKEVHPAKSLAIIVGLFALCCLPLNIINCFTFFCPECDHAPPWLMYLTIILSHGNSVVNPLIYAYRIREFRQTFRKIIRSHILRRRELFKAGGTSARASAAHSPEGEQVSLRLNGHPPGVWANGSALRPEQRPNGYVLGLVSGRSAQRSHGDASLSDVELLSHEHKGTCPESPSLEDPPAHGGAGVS
# Assay remarks: biochemical
# Description: Antagonist binding of N6-cyclohexyl-[3H]-adenosine to guinea pig brain
Experimental readout: pKi
The quantity pKi is defined as the negative base-10 logarithm of the molar concentration.

Some solved cases for reference:
| Molecule | pKi |
| --- | --- |
| C[C@@H](Cc1ccccc1)Nc1ncnc2c1ncn2[C@@H]1O[C@H](CO)[C@@H](O)[C@H]1O [(S)-PIA] | 6.89 |
| Nc1nc(Cl)nc2c1ncn2[C@@H]1O[C@H](CO)[C@@H](O)[C@H]1O | 8.10 |
| CC(C)Cn1c(=O)n(C)c(=O)c2[nH]cnc21 [ISOBUTYLMETHYLXANTHINE] | 5.10 |
| Nc1ncnc2c1ncn2[C@@H]1O[C@H](C(=O)NC2CC2)[C@@H](O)[C@H]1O | 8.10 |

Input: Requested read-out: pKi. Entry: Cn1c(=O)c2[nH]c(-c3ccccc3)nc2n(C)c1=O [8-PHENYL THEOPHYLLINE]
Output: 6.40

* * *

List of Ki values.
# System name: Adenosine receptor A1 (Bos taurus, UniProt P28190)
# Sequence (P28190 whole entry): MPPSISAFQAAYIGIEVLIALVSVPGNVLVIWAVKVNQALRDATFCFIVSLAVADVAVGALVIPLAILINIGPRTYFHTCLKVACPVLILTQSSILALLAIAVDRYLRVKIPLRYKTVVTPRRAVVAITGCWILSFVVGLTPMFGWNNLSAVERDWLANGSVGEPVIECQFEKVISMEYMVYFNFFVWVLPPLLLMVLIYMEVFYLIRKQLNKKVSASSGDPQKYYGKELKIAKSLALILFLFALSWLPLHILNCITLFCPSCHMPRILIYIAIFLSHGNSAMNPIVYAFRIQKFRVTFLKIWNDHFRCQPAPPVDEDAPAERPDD
Give just the number in µM; leave the unit off.

Here are 3 molecules together with their reported answers.
| Molecule | System name | Ki, µM |
| --- | --- | --- |
| C[C@H](Cc1ccccc1)Nc1ncnc2c1ncn2[C@@H]1O[C@H](CO)[C@@H](O)[C@H]1O [(R)-PIA] | Adenosine receptor A1 (Bos taurus, UniProt P28190) | 0.00025 |
| Cn1c(=O)c2c(ncn2C)n(C)c1=O | Adenosine receptor A1 (Bos taurus, UniProt P28190) | 130 |
| CC(C)Cn1c(=O)n(C)c(=O)c2[nH]cnc21 | Adenosine receptor A1 (Bos taurus, UniProt P28190) | 7 |

Then this molecule:
Input: Request the reported Ki associated with C[C@@H](Cc1ccccc1)Nc1ncnc2c1ncn2[C@@H]1O[C@H](CO)[C@@H](O)[C@H]1O [(S)-PIA]
Output: 0.008
